Known z-score of a selection of compounds
- METHOD DESCRIPTION: survival rescue of mitochondrial mutant cells in low glucose, primary screen, MELAS cybrids, Rieske KO mouse fibroblasts, CellTiter-Glo (AID 1508586);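 note: z relative to plate mean and SD of compound and empty wells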
- TEST PARAMETERS: Rieske KO mouse fibroblast survival, CellTiter-Glo 72 h

# annotated cases, reported z-score shown
COMPOUND	z-score
O=C(NCNC(=O)NC1C(=O)NC(=O)N1CO)NC1C(=O)NC(=O)N1CO (stereo unspecified)	0.0717
C[C@@H]1O[C@@H](O[C@H]2C[C@@H](O)[C@]3(CO)[C@H]4[C@H](O)C[C@]5(C)[C@@H](C6=CC(=O)OC6)CC[C@]5(O)[C@@H]4CC[C@]3(O)C2)[C@H](O)[C@H](O)[C@H]1O	-0.329
CN1CCCCC1Cn1cc(C(=O)c2cc([N+](=O)[O-])ccc2I)c2ccccc21 (stereo unspecified)	-0.371
O[C@@H]1CCCC[C@H]1N1CCC(c2ccccc2)CC1	-0.671
CN(C)Cc1c[nH]c2ccccc12	0.0463

Could you tell me which z-score is on file for C#C[C@@]1(O)C=C[C@H]2[C@@H]3CCC4=CC(=O)CC[C@@H]4[C@@H]3CC[C@@]21CC ?
0.382

# repeat for C/C=C/N1CC[C@]23CCCC[C@H]2[C@H]1Cc1ccc(O)cc13
-0.504

Follow-up item: CCC1(C2=NCCN2)Cc2ccccc2O1 (stereo unspecified)
-0.349

Query C#CCN(C)C(C)Cc1ccccc1 (stereo unspecified) next
-0.831

Likewise for CCC1C=CC=CCC(C)C(O)[C@@](C)(O)C(=O)C(C)[C@@H](O)C(C)C(=O)C(C)C(O)C(C)C=CC(=O)OC2C(C)[C@]3(CCC(C)C(CC(C)O)O3)OC(CC1)[C@H]2C (stereo partly specified) ?
-0.402

Try this compound next: C[C@H]1O[C@H](OC2[C@@H](O)[C@@H](O)C(O)[C@H](O)[C@H]2O)[C@@H](N)C[C@@H]1N=C(N)C(=O)O (stereo partly specified)
-0.393

Next: CC(C)[C@@]12OC1C1O[C@]13[C@]1(OC1C[C@@H]1C4=C(CC[C@@]13C)C(=O)OC4)C2O (stereo partly specified)
-0.457

C[C@]12COC(=O)C[C@@H]1CC[C@@H]1[C@@H]2CC[C@@]2(C)[C@H]1CC[C@]2(C)O ?
0.228

====

- METHOD DESCRIPTION: SU-DIPG-VI glioma cell viability, MIPE4.0 library, CellTiter-Glo luminescence, qHTS (AID 1347066);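 note: cells exposed to compound for 48 hours before readout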
- TEST PARAMETERS: CellTiter-Glo ATP luminescence
Records with an inconclusive call do not appear. Active and inactive are the calls of the source. Cut-off not given; nearly all actives show AC50 up to about 30 µM.
Allowed answers: T = active, F = inactive

MOLECULE	LABEL
C[C@]12COC(=O)C[C@@H]1CC[C@@H]1[C@@H]2CC[C@@]2(C)[C@H]1CC[C@]2(C)O	F
CC1(C)CC(O)CC(C)(C)N1O	F
CCN1CCN(C(=O)Cc2ccc(Nc3ncc(F)c(Nc4ccc(C(=O)Nc5ccccc5Cl)cc4)n3)cc2)CC1	T
CN(C)CCc1ccc(O)cc1	F
CN1[C@@H]2CC(O)C[C@H]1[C@@H]1O[C@@H]12 (some centres undefined)	T

So what was the verdict on CCCCCC[C@H]1C(=O)O[C@H](C)[C@H](NC(=O)c2cccc(NC=O)c2O)C(=O)O[C@@H](C)[C@@H]1OC(=O)CC(C)C in this test?
T

Could you do the same for CC(C)(O)/C=C\C(=O)[C@](C)(O)[C@H]1[C@H](O)C[C@]2(C)[C@@H]3CC=C4[C@@H](C=C(O)C(=O)C4(C)C)[C@]3(C)C(=O)C[C@@]12C , please?
T

Continue with Clc1ccccc1C(c1ccccc1)(c1ccccc1)n1cccn1
F

Now try COC(=O)C1=CCCN(C)C1 .
F

Again, but for COC(=O)[C@@H](N)CCCN=C(N)N[N+](=O)[O-]
F

Queued: C[C@H]1[C@@H](C(=O)C[C@H]2O[C@@H]3O[C@]4(C)CC[C@H]5[C@H](C)CC[C@@H]([C@H]2C)[C@@]35OO4)O[C@@H]2O[C@]3(C)CC[C@H]4[C@H](C)CC[C@@H]1[C@@]24OO3
F

Check C[C@]12CCC(=O)C=C1CC[C@@H]1[C@@H]2CC[C@@]2(C)[C@H]1CC[C@]2(C)O too.
F

Next record, please: C[C@H]([C@H](O)CCC(C)(C)O)[C@H]1CC[C@@]2(O)C3=CC(=O)[C@@H]4C[C@@H](O)[C@@H](O)C[C@]4(C)[C@H]3CC[C@]12C
F

Try CCC1(c2ccc(N)cc2)CCC(=O)NC1=O (centres undefined) next.
F

Try this molecule too: C[C@]12CC[C@H]3[C@@H](CCC4=CC(=O)CC[C@@]43C)[C@@H]1CC[C@@H]2O
F

Query CCOP(=O)(OCC)C(C)NC(=O)N(CCCl)N=O (centres undefined) next
F

Then this molecule: C[C@]12Cc3cn[nH]c3C[C@@H]1CC[C@@H]1[C@@H]2CC[C@@]2(C)[C@H]1CC[C@]2(C)O
F

Would you kindly repeat that for COc1ccc(C(=O)c2c(C)n(CCN3CCOCC3)c3cc(I)ccc23)cc1 ?
T

Continue with CC(C)N[C@@H]1CCn2c(=O)[nH]c3cccc(c32)[C@H]1O
T

====

- METHOD DESCRIPTION: stimulators of insulin release from INS-1E, primary screen, cell-based, 5 mM glucose, NPC library (AID 1117329); note: reference of the scale not given here
- TEST PARAMETERS: rat INS-1E insulin secretion, at 10 µM, stronger effect = higher value
MEASUREMENT KIND: insulin secretion stimulation (%)
Answer with a number only, understood to be in %.

Example entries and their recorded answers appear below.
MOLECULE	insulin secretion stimulation (%)
O=C(O)C(Cl)Cl	-1.6
NCCC[C@H](N)C(=O)O	-2.2
CN1C(=O)NC(=O)C(C)(C2=CCCCC2)C1=O (stereo not drawn)	-0.5
CCOC(=O)NC(C)(C)Cc1ccc(Cl)cc1	2.1
C=C(C)[C@H]1Cc2c(ccc3c2O[C@@H]2COc4cc(OC)c(OC)cc4[C@@H]2C3=O)O1	-0.1
C[C@H]1O[C@@H](O[C@H]2[C@@H](O)C[C@H](O[C@H]3[C@@H](O)C[C@H](O[C@H]4CC[C@@]5(C)[C@H](CC[C@@H]6[C@@H]5CC[C@]5(C)[C@@H](C7=CC(=O)OC7)CC[C@]65O)C4)O[C@@H]3C)O[C@@H]2C)C[C@H](O)[C@@H]1O	0.25

I would be grateful if you could share the reported insulin secretion stimulation for COc1ccc2c(c1OC)CN1CCc3cc4c(cc3C1C2)OCO4 (stereo not drawn) .
1.5

Queued: CC(C)=C[C@@H]1[C@@H](C(=O)OCc2coc(Cc3ccccc3)c2)C1(C)C
-3.4

Could you do the same for COP(=S)(OC)Oc1ccc(S(N)(=O)=O)cc1 , please?
-1.7

====

Below, each of the compounds is paired with its reported z-score value.
- METHOD DESCRIPTION: survival rescue of mitochondrial mutant cells in low glucose, primary screen, MELAS cybrids, Rieske KO mouse fibroblasts, CellTiter-Glo (AID 1508586);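 note: z relative to plate mean and SD of compound and empty wells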
- TEST PARAMETERS: Rieske KO mouse fibroblast survival, CellTiter-Glo 72 h

CCN(C(C)=O)c1cccc(-c2ccnc3c(C#N)cnn23)c1 0.277
CC[C@@]1(O)C(=O)OCc2c1cc1n(c2=O)Cc2cc3c(O)cccc3nc2-1 -0.93
COc1ccc(Cc2nccc3cc(OC)c(OC)cc23)cc1OC 0.124

In the following, a different compound is considered.
Consider the compound Oc1ccc(C2(c3ccc(O)cc3)CCCCC2)cc1 and give its measured z-score.
-0.22

====

- Tested on: R275C/beta2Delta
- METHOD DESCRIPTION: modulators of BK channel variants, profiling panel, selectivity assay, cell-based, U2OS BacMam, thallium flux, beta subunits (AID 1259406);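 note: initial slope of Thallos dye fluorescence rise after thallium is added; log ratio against the mean of 0.3% DMSO vehicle wells on the same plate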
- TEST PARAMETERS: at 30 µM
MEASUREMENT KIND: log fold change Tl+ flux
Answer with a number only.

MOLECULE	MEASUREMENT KIND	MEASURED NUMBER
C=C1C[C@@H]2[C@H](CC[C@]3(C)C(=O)CC[C@@H]23)[C@@]2(C)C=CC(=O)C=C12	log fold change Tl+ flux	0.00258
CN1CC[C@@]23CCCC[C@@H]2[C@@H]1Cc1ccc(O)cc13	log fold change Tl+ flux	0.00635

Then this molecule:
Which log fold change Tl+ flux value is on record for CCC1(c2ccc(N)cc2)CCC(=O)NC1=O (stereo not drawn) ?
-0.0116

====

# z-score per entry
- METHOD DESCRIPTION: survival rescue of mitochondrial mutant cells in low glucose, primary screen, MELAS cybrids, Rieske KO mouse fibroblasts, CellTiter-Glo (AID 1508586);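 note: z relative to plate mean and SD of compound and empty wells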
- TEST PARAMETERS: Rieske KO mouse fibroblast survival, CellTiter-Glo 72 h
Enter the number alone.

Some solved cases for reference:
COMPOUND	MEASURED NUMBER
C=C[C@H]1CN2CCC1C[C@H]2C(O)c1ccnc2ccccc12 (stereo partly specified)	0.792
CCCCCCCCCCCCCCCC[n+]1ccccc1	-0.303
N#CC(C#N)=Cc1ccc(O)c(O)c1	-0.257
O=C1C[C@@H]2OCC=C3CN4CC[C@]56c7ccccc7N1[C@H]5[C@H]2[C@H]3C[C@H]46	0.445
O=C1CCCN1CC#CCN1CCCC1	-0.277

# ---- query compound ----
Look up z-score for this compound: C[C@]12CC[C@H]3[C@@H](CCC4=CC(=O)CC[C@@H]43)[C@@H]1CC[C@@H]2O
0.271
